- Tested target: NMDA receptor
- Type: cell-based, rat
- Run conditions: read-out: IC50 for inhibition of NMDA receptor-evoked current (dose-response curve)
pIC50: −log10 of the molar value. Ends that are not written are not given here.

Polymer sequence	pIC50
GEDDLQDNQDLIRDKSN [SEQ ID NO: 2]	3.70
